Target: hNPY2R (Homo sapiens, UniProt P49146)
Construct: expressed in transfected cells; host or cells: HEK-293 cells carrying a CRE-luciferase reporter gene
Sequence (P49146 whole entry): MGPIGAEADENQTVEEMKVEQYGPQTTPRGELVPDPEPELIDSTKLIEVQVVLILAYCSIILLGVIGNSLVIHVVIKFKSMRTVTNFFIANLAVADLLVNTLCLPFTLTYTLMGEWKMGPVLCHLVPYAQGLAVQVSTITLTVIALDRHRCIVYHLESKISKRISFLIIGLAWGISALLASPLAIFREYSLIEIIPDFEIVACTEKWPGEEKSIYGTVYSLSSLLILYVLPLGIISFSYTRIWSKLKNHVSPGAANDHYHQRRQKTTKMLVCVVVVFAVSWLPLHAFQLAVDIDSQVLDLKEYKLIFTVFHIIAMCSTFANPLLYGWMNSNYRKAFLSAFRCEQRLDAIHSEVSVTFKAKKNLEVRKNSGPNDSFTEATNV
Test: hNPY2R CreLuc reporter gene assay in 0.5% and 100% plasma
Assay type: cell-based
Details: CreLuc reporter gene assay, 0.5% human plasma; read-out: hNPY2R 0.5% hP
Starred links: 1 amine or outer side, 2 acyl side, 3 side chain; linkers in the order of their positions; H or OH if unused. Non-standard residues stand in square brackets, D forms with d. Groups on a side chain read outwards from the residue. *: point of attachment. C20 diacid = O=C(O)CCCCCCCCCCCCCCCCCCC(=O)*; C18 diacid = O=C(O)CCCCCCCCCCCCCCCCC(=O)*; γGlu = O=C(O)[C@H](CCC(=O)[*:2])N[*:1]; εLys = N[C@@H](CCCCN[*:1])C(=O)[*:2]; AEEA = NCCOCCOCC(=O)O; Aib = CC(C)(N)C(=O)O
Measured attribute: EC50 (nM)
Could you give me the number in nM? Just the number is fine.

Please review the following examples before continuing.
1) H-Y[Aib]EGTFTSDYSI[Aib]LEKQAQ[Aib]AFVEWLIK([εLys-γGlu-γGlu-γGlu-γGlu-γGlu-γGlu-C20 diacid])GGPSEGQSLRHYYNWLTRQRY-NH2 [Compound 227]; 10.2
2) H-Y[Aib]EGTFTSDYSI[Aib]LEKQAQ[Aib]EFVQWLIK([εLys-γGlu-γGlu-γGlu-γGlu-γGlu-C18 diacid])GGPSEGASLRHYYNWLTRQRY-NH2 [Compound 154]; 10.7

Supply EC50 value. Item: H-Y[Aib]EGTFTSDYSI[Aib]LEKQAQ[Aib]AFVEWLIK([AEEA-AEEA-γGlu-γGlu-γGlu-γGlu-C18 diacid])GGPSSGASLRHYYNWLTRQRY-NH2 [Compound 254]
17.8

Supply EC50 value. Item: H-Y[Aib]EGTFTSDYSI[Aib]LEKQAE[Aib]AFVQWLIK([εLys-γGlu-γGlu-γGlu-γGlu-γGlu-C20 diacid])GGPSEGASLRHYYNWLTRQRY-NH2 [Compound 200]
12.1
